target.desc: T1, human PD-L1-his tag protein (human, UniProt Q9NZQ7 19-238)
T1 construct: also called human PD-L1-His protein; recombinant PD-L1 protein; not shown: his tag
assay.protocol: SPR (Biacore T200), mAb captured on Protein A chip, PD-L1-his injected
Listed next: entries and their corresponding koff.
// return numeric value only (unit: s⁻¹, not printed)

binder	unit.name	koff
Hu47C6A3-1 (antibody, V domains shown, humanized) VH: QVQLQESGPGLVKPSETLSLTCTVSGYSITSDYAWNWIRQPPGKGLEWIGYIIYSGSTSYNPSLKSRVTISVDTSKNQFSLKLSSVTAADTAVYYCARSTMIATNWFAYWGQGTLVTVSS VL: DIQMTQSPSSLSASVGDRVTITCKASQDVSLAVAWYQQKPGKAPKLLIYWASTRHTGVPSRFSGSGSGTDFTLTISSLQPEDFATYYCQQHYITPWTFGGGTKVEIK	s⁻¹	0.000593
Hu67F3G7-2 (antibody, V domains shown, humanized) VH: EVQLVQSGAEVKKPGASVKVSCKASGYTFTDFWVSWVRQAPGQGLEWMGEIYPNSGVSRYNEKFKGRVTMTVDKSISTAYMELSRLRSDDTAVYYCTKYFGYTYWFGYWGQGTLVTVSS VL: DIQMTQSPSSLSASVGDRVTITCRASKSVSTYMHWYQQKPGKAPKLLIYSASHLESGVPSRFSGSGSGTDFTLTISSLQPEDFATYYCQQSNELPVTFGGGTKVEIK	s⁻¹	7.03e-05

Documented koff of Hu89C10H8-4 (antibody, V domains shown, humanized) VH: EVQLVESGGGLVKPGGSLRLSCAASGFTFSNYWMTWIRQAPGKGLEWVASITNTGSSTFYPDSVKGRFTISRDNAKSSLYLQMNSLRAEDTAVYYCTRDTTIAPFDYWGQGTMVTVSS VL: DIQMTQSPSSLSASVGDRVTITCKASQNLNEYLNWYQQKPGKAPKRLIYKTNTLQAGVPSRFSGSGSGTDYTLTISSLQPEDFATYYCSQYNSGNTFGQGTKLEIK : 5.41e-05

# koff (binder: Hu67F3G7-3 (antibody, V domains shown, humanized) VH: EVQLVQSGAEVKKPGASVKVSCKASGYIFTDFWVSWVRQAPGQGLEWIGEIYPNSGVSRYNEKFKGRVTMTVDKSISTAYMELSRLRSDDTAVYYCTKYFGYTYWFGYWGQGTLVTVSS VL: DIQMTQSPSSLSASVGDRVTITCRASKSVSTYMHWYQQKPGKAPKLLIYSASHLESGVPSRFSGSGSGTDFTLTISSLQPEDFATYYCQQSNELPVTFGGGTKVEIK ) is 7.74e-05

Sample Hu47C6A3-3 (antibody, V domains shown, humanized) VH: QVQLQESGPGLVKPSETLSLTCTVSGYSITSDYAWNWIRQPPGKGLEWMGYIIYSGSTSYNPSLKSRITISRDTSKNQFSLKLSSVTAADTAVYYCARSTMIATNWFAYWGQGTLVTVSS VL: DIQMTQSPSSLSASVGDRVTITCKASQDVSLAVAWYQQKPGKAPKLLIYWASTRHTGVPSRFSGSGSGTDFTLTISSLQPEDFATYYCQQHYITPWTFGGGTKVEIK ; koff observed: 0.000966

Reported koff of Hu89C10H8-7 (antibody, V domains shown, humanized) VH: EVQLVESGGGLVKPGGSLRLSCAASGFTFSNYWMTWIRQAPGKGLEWVASITNTGSSTFYPDSVKGRFTISRDNAKNSLYLQMNSLRAEDTAVYYCTRDTTIAPFDYWGQGTMVTVSS VL: DIQMTQSPSSLSASVGDRVTITCKASQNLNEYLNWYQQKPGKAPKRLIYKTNTLQAGIPSRFSGSGSGTDYTLTISSLQPEDFATYYCSQYNSGNTFGQGTKLEIK : 5.31e-05
